# System: MCF-7 (breast adenocarcinoma)
# PROCEDURE_DETAILS: SRB cancer cell growth assay, MCF-7
# Format: cell-based, human
# APPLIED_CONDITIONS: Homo sapiens, MCF7; MCF-7, 48 h exposure, SRB; read-out: IC50 (μg/mL) MCF-7
Label MET when IC50 is strictly below 40 µg/mL; otherwise label NOT MET.

Lab note: confirm whether the reported IC50 for this compound is below 40 µg/mL, equality not counting. compound: CC1CCCCN1c1nc(-c2ccc(Cl)cc2Cl)cc(-c2ccc(F)cc2)c1C#N (centres unmarked) [Compound 15a]
MET

Quick check: does COc1ccc(C=NNc2nc(-c3ccc(Cl)cc3Cl)cc(-c3ccc(F)cc3)c2C#N)cc1OC [Compound 21d] have IC50 under 40 µg/mL?
NOT MET

Determine if N#Cc1c(-c2ccc(F)cc2)cc(-c2ccc(Cl)cc2Cl)nc1NN shows IC50 strictly lower than 40 µg/mL.
MET

Problem: For the compound N#Cc1c(-c2ccc(F)cc2)cc(-c2ccc(Cl)cc2Cl)nc1NN=C1C(=O)Nc2ccccc21 , is IC50 under 40 µg/mL?
MET

is_below(IC50, 40 µg/mL) for CCOC(=O)COc1nc(-c2ccc(Cl)cc2Cl)cc(-c2ccc(F)cc2)c1C#N ?
MET

Lab log: compare recorded IC50 with 40 µg/mL; is it strictly lower for N#Cc1c(-c2ccc(F)cc2)cc(-c2ccc(Cl)cc2Cl)nc1NCc1ccc2c(c1)OCO2 ?
MET

Determine if N#Cc1c(N)c2c(-c3ccc(F)cc3)cc(-c3ccc(Cl)cc3Cl)nc2[nH]c1=O shows IC50 strictly lower than 40 µg/mL.
MET

Is IC50 of Nc1nnc2[nH]c(-c3ccc(Cl)cc3Cl)cc(-c3ccc(F)cc3)c1-2 strictly below 40 µg/mL?
NOT MET
